target: Sos1-X′ peptide (Homo sapiens); experiment: NMR
attribute measured: Kd
# answer = value followed by unit

Recorded Kd (binder Grb2 N-SH3 2-59, P62993 (protein) EAIAKYDFKATADDELSFKRGDILKVLNEESDQNWYKAELNGKDGFIPKNYIEMKPHP ): 4.9 µM
